biological target: D3R (Homo sapiens, UniProt P35462); experiment: β-arrestin competition (recruitment) assay against dopamine; conditions: competition with dopamine (30 nM) for the D3R, at least three experiments; read-out: β-Arrestin Assay IC50 ± SEM
Sequence (P35462 whole entry): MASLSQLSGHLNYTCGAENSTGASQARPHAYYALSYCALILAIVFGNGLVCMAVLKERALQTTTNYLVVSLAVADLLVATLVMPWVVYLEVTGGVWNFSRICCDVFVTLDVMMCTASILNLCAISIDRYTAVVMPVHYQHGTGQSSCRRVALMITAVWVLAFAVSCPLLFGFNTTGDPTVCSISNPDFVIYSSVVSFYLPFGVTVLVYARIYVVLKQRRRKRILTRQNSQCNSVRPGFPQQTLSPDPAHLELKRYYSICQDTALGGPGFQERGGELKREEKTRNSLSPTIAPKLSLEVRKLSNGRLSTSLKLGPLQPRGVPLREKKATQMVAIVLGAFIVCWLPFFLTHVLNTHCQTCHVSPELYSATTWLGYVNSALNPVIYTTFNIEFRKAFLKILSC
# IC50 per entry
Write it as a number; the unit nM goes unstated.

C=CCN1C[C@@H](OC(=O)NCCCCCCCCCC)C[C@H]1CNC(=O)c1cc(CCCF)cc(OC)c1OC [(S,S)-cis-2d] : 608

Query the reported IC50 for D3R (Homo sapiens, UniProt P35462); item: C=CCN1C[C@H](OC(=O)NCCCC)C[C@H]1CNC(=O)c1cc(CCCF)cc(OC)c1OC [(R,S)-trans-2a]
0.8

Query the reported IC50 for D3R (Homo sapiens, UniProt P35462); item: C=CCN1C[C@H](OC(=O)NCCCCCC)C[C@H]1CNC(=O)c1cc(CCCF)cc(OC)c1OC [(R,S)-trans-2b]
7.8

----------
# pIC50 per entry
biological target: D3R (Homo sapiens); test: β-arrestin competition (recruitment) assay against dopamine; conditions: competition with dopamine (30 nM) for the D3R, at least three experiments; read-out: β-Arrestin Assay IC50 ± SEM
# pIC50 = -log10(concentration in molar units)

C=CCN1C[C@H](OC(=O)NCCCCCCCC)C[C@H]1CNC(=O)c1cc(CCCF)cc(OC)c1OC [(R,S)-trans-2c] : 7.56

Lab note: next compound to report on.
Query the reported pIC50 for D3R (Homo sapiens); item: C=CCN1C[C@H](OC(=O)NCCCCCCCCCC)C[C@H]1CNC(=O)c1cc(CCCF)cc(OC)c1OC [(R,S)-trans-2d]
7.67

----------
target: human D2 (Homo sapiens, UniProt P14416); construct: expressed in transfected cells; experiment: D2R radioligand binding assay ([125I]IABN, HEK cells); conditions: human D2 expressed in HEK cells, [125I]IABN radioligand, at least three experiments, HCl salts; read-out: Ki ± SEM D2R
Sequence (P14416 whole entry): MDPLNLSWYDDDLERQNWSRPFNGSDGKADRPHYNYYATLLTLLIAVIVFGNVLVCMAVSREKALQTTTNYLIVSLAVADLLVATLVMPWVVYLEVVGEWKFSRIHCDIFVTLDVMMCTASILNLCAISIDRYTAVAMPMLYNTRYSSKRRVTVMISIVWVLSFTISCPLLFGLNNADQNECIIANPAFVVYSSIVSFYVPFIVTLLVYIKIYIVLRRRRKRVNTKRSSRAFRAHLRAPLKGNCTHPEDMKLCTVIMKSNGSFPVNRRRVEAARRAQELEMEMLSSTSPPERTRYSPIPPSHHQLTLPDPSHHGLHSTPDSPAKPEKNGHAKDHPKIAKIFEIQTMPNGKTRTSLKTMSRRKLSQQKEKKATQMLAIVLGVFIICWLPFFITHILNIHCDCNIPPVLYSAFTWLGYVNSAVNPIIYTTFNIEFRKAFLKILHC
METRIC: Ki (nM)
Write it as a number; the unit nM goes unstated.

Use these answered entries as a reference point.
C=CCN1C[C@H](OC(=O)NCCCCCCCCCC)C[C@H]1CNC(=O)c1cc(CCCF)cc(OC)c1OC [(R,S)-trans-2d] : 35.6
C=CCN1C[C@H](OC(=O)NCCOCCOCCOCCOC)C[C@H]1CNC(=O)c1cc(CCCF)cc(OC)c1OC [(R,S)-trans-2f] : 11.5

Can you look up the measured Ki of C=CCN1C[C@H](OC(=O)NCCCCCCCCc2cccs2)C[C@H]1CNC(=O)c1cc(CCCF)cc(OC)c1OC [(R,S)-trans-2i] for me?
3.7

Can you look up the measured Ki of C=CCN1C[C@H](OC(=O)NCCOCCOCCOC)C[C@H]1CNC(=O)c1cc(CCCF)cc(OC)c1OC [(R,S)-trans-2e] for me?
9.2

Can you look up the measured Ki of C=CCN1C[C@H](OC(=O)NCCCCCCCCc2ccsc2)C[C@H]1CNC(=O)c1cc(CCCF)cc(OC)c1OC [(R,S)-trans-2j] for me?
10.5

Can you look up the measured Ki of C=CCN1C[C@H](OC(=O)NCCCC)C[C@H]1CNC(=O)c1cc(CCCF)cc(OC)c1OC [(R,S)-trans-2a] for me?
4.8

Can you look up the measured Ki of C=CCN1C[C@@H](OC(=O)NCCCCCCCCc2cccs2)C[C@@H]1CNC(=O)c1cc(CCCF)cc(OC)c1OC [(S,R)-trans-2i] for me?
1470

Can you look up the measured Ki of C=CCN1C[C@H](OC(=O)NCCCCCCCCc2cccs2)C[C@@H]1CNC(=O)c1cc(CCCF)cc(OC)c1OC [(R,R)-cis-2i] for me?
2190

Can you look up the measured Ki of C=CCN1C[C@H](OC(=O)NCCCCCCCCCC)C[C@@H]1CNC(=O)c1cc(CCCF)cc(OC)c1OC [(R,R)-cis-2d] for me?
9600
